// provenance: patent US8895526B2

Tested on: immortalized murine embryonic fibroblasts (Mef)
Experiment: Pooled negative selection RNAi screening (deep sequencing)
Format: cell-based
Details: deep sequencing reads, on dox compared to initial representation
Description: In addition to the analysis of single shRNAs for inhibitory effects in vitro and in vivo, the combination of tet-on competent cancer models and tet-regulatable shRNA expression vectors allowing for monitoring shRNA expression through fluorescent and other reporter genes (e.g. TRMPV and derivates) facilitates pooled shRNA negative selection screening (FIG. 37). […]
# Fold depletion in Mef per entry
readout-label: Fold depletion in Mef (Fold)

- Hexa.1510: shRNA, SEQ ID NO: 131 (nucleic acid) TGCTGTTGACAGTGAGCGAGAGCAGTAACCTGACAACTAATAGTGAAGCCACAGATGTATTAGTTGTCAGGTTACTGCTCCTGCCTACTGCCTCGGA: 2.13
- Bcl2.1422: shRNA, SEQ ID NO: 95 (also SEQ ID NO: 41) (nucleic acid) TGCTGTTGACAGTGAGCGACCGGGAGAACAGGGTATGATATAGTGAAGCCACAGATGTATATCATACCCTGTTCTCCCGGCTGCCTACTGCCTCGGA: 2.71
- Cacna1f.3314: shRNA, SEQ ID NO: 99 (nucleic acid) TGCTGTTGACAGTGAGCGACTGGCCTGCGCTACTATACAATAGTGAAGCCACAGATGTATTGTATAGTAGCGCAGGCCAGCTGCCTACTGCCTCGGA: 2.14
- BRAF.5053: neutral control shRNA, SEQ ID NO: 193 (nucleic acid) TGCTGTTGACAGTGAGCGCTAGGGTGATGTCTCACTTGAATAGTGAAGCCACAGATGTATTCAAGTGAGACATCACCCTATTGCCTACTGCCTCGGA: 0.33
- Kit.221: neutral control shRNA, SEQ ID NO: 196 (nucleic acid) TGCTGTTGACAGTGAGCGCCAGATGGACTTTCAAGACCTATAGTGAAGCCACAGATGTATAGGTCTTGAAAGTCCATCTGATGCCTACTGCCTCGGA: 0.69
- Vnn3.345: shRNA, SEQ ID NO: 189 (nucleic acid) TGCTGTTGACAGTGAGCGAACGCCAGAAGATGGAATCTATTAGTGAAGCCACAGATGTAATAGATTCCATCTTCTGGCGTCTGCCTACTGCCTCGGA: 2.59
- Klrb1b.845: shRNA, SEQ ID NO: 136 (nucleic acid) TGCTGTTGACAGTGAGCGCCAGATTCTTCATTGTATAAATTAGTGAAGCCACAGATGTAATTTATACAATGAAGAATCTGTTGCCTACTGCCTCGGA: 0.43
- Gart.2713: shRNA, SEQ ID NO: 127 (nucleic acid) TGCTGTTGACAGTGAGCGAACCAGGGTAATTAATCACAAATAGTGAAGCCACAGATGTATTTGTGATTAATTACCCTGGTGTGCCTACTGCCTCGGA: 2.22
- Rgs6.896: shRNA, SEQ ID NO: 173 (nucleic acid) TGCTGTTGACAGTGAGCGCCAAGTGAAGATTGACCGGAAATAGTGAAGCCACAGATGTATTTCCGGTCAATCTTCACTTGTTGCCTACTGCCTCGGA: 1.99
- Cpd.1693: shRNA, SEQ ID NO: 109 (nucleic acid) TGCTGTTGACAGTGAGCGCACCAGGTGAACCAGAATTTAATAGTGAAGCCACAGATGTATTAAATTCTGGTTCACCTGGTTTGCCTACTGCCTCGGA: 3.91
- Fas.1344: shRNA, SEQ ID NO: 118 (nucleic acid) TGCTGTTGACAGTGAGCGCGAGGAGAATTATAAACTGAAATAGTGAAGCCACAGATGTATTTCAGTTTATAATTCTCCTCATGCCTACTGCCTCGGA: 1.36
- Myb.670: shRNA, SEQ ID NO: 145 (also SEQ ID NO: 54) (nucleic acid) TGCTGTTGACAGTGAGCGACACAACCATTTGAATCCAGAATAGTGAAGCCACAGATGTATTCTGGATTCAAATGGTTGTGCTGCCTACTGCCTCGGA: 1.28
- S100a9.148: shRNA, SEQ ID NO: 177 (nucleic acid) TGCTGTTGACAGTGAGCGCCAGACAAATGGTGGAAGCACATAGTGAAGCCACAGATGTATGTGCTTCCACCATTTGTCTGATGCCTACTGCCTCGGA: 2.68
- Bcl2.906: shRNA, SEQ ID NO: 98 (nucleic acid) TGCTGTTGACAGTGAGCGCGCACAGGAATTTTGTTTAATATAGTGAAGCCACAGATGTATATTAAACAAAATTCCTGTGCATGCCTACTGCCTCGGA: 0.98
- Tnfsf12.1204: shRNA, SEQ ID NO: 187 (nucleic acid) TGCTGTTGACAGTGAGCGCAATGGATATTAAAGAGAATAATAGTGAAGCCACAGATGTATTATTCTCTTTAATATCCATTTTGCCTACTGCCTCGGA: 0.93
- Fn1.4143: shRNA, SEQ ID NO: 121 (nucleic acid) TGCTGTTGACAGTGAGCGCCAGTAGGATACTACACAGTTATAGTGAAGCCACAGATGTATAACTGTGTAGTATCCTACTGATGCCTACTGCCTCGGA: 0.84
- Dnajc10.2057: shRNA, SEQ ID NO: 113 (nucleic acid) TGCTGTTGACAGTGAGCGCTCCAACGACAGTGGTATTCAATAGTGAAGCCACAGATGTATTGAATACCACTGTCGTTGGATTGCCTACTGCCTCGGA: 1.47
